- Assay System: isolated kinase domain of the human FLT3 receptor (a.a. 571-993) (Homo sapiens, UniProt P36888)
- Construct: human FLT3 receptor (a.a. 571-993)
- Sequence (P36888 571-993): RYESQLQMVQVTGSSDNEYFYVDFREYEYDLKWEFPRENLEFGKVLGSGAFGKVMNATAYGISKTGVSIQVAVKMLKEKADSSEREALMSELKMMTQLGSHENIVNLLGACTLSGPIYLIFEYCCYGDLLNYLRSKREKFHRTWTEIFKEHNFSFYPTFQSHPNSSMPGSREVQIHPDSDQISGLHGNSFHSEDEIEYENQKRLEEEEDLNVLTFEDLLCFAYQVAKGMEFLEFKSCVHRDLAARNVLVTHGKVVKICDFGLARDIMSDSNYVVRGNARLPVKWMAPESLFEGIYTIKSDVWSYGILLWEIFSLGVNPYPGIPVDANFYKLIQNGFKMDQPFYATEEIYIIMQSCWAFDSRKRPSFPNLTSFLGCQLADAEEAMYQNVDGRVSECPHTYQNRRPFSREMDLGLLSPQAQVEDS
- Experiment: FLT3 fluorescence polarization kinase assay
- Type: biochemical
- Experimental Conditions: uncertainty ±10%
Measured Parameter: IC50 (nM)

Example results:
Structure String	IC50, nM
CCO/N=C/c1c(N)ncnc1N1CCN(C(=O)Nc2ccc(N3CCOCC3)cc2)CC1	126
CCO/N=C\c1c(N)ncnc1N1CCN(C(=O)Cc2ccc(C(C)C)cc2)CC1	24

P. CCO/N=C/c1c(N)ncnc1N1CCN(C(=O)Cc2ccc(C(C)C)cc2)CC1
Q. CO/N=C/c1c(N)ncnc1N1CCN(C(=O)Cc2ccc(C(C)C)cc2)CC1
Lookup: Short answer wanted: higher IC50, P or Q ? // respond with label for picked entry
Found: Q
(Q: 14 nM, P: 8 nM)
